# Target System: PI3K-gamma (Homo sapiens)
# Sequence (P48736 whole entry, species assumed): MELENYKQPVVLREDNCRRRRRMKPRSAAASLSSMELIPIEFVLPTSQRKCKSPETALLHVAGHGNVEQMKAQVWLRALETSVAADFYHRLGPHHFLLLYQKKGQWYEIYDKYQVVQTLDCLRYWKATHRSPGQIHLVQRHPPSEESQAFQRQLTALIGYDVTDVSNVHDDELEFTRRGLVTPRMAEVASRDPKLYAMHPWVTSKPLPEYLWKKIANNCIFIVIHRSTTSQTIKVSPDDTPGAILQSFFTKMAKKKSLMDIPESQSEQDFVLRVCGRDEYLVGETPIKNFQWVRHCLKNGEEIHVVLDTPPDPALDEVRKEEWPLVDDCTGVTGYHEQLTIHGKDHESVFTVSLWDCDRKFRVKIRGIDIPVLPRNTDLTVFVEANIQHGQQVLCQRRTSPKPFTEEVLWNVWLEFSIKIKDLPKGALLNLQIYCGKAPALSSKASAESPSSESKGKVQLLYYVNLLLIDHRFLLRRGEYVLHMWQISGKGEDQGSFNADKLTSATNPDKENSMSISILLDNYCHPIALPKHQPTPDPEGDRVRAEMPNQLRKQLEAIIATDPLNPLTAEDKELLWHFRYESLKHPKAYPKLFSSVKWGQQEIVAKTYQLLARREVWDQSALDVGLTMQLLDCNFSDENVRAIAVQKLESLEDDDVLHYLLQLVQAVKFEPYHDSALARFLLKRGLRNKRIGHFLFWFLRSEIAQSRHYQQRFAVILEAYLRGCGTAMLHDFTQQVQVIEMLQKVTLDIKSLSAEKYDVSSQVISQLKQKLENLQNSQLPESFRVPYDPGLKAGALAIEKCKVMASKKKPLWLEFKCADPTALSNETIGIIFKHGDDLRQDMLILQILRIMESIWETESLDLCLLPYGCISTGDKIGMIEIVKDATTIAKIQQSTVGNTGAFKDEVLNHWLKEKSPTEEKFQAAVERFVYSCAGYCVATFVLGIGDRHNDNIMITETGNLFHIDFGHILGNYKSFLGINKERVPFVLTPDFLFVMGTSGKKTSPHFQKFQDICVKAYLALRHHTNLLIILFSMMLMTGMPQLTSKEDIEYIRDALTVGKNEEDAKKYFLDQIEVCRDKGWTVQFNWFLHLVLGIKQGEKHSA
# Test Method Notes: PI3K-gamma fluorescence polarization assay
# Assay type: biochemical
# Experimental Setup: PI3Kγ Avg. IC50
pIC50: −log10 of the molar value.
Output Criterion met for pIC50 not less than 6; output Criterion not met otherwise.

Completed entries (count: 5):
COc1ccc2c(c1)c(/C=C1\Oc3cc(O)c(Br)cc3C1=O)c(C)n2CCCN(C)C [Example 350] | Criterion not met
CCn1c(C)c(/C=C2\Oc3ccc(NC(=O)Nc4ccc(OCCN(C)C)cc4)cc3C2=O)c2cc(OC)ccc21 [Compound 667] | Criterion met
COc1ccc2c(c1)c(/C=C1\Oc3c(ccc(O)c3F)C1=O)c(C)n2CCCN(C)C [Example 449] | Criterion not met
O=C1C(=Cc2c[nH]c3ccc(I)cc23)Oc2cc(O)cc(O)c21 [Example 177] | Criterion not met
COc1ccc2c(c1)c(/C=C1\Oc3ccc(NC(=O)NCCN)cc3C1=O)cn2CCN1CCN(C)CC1 [Compound 549] | Criterion not met

INPUT: # check: pIC50 of COc1ccc2c(c1)c(C=C1Oc3cc(O)cc(O)c3C1=O)c(C)n2CCN1CCN(C)CC1 [Example 108] is greater than or equal to 6
OUTPUT: Criterion met

INPUT: # check: pIC50 of COc1cc(-c2cccnc2)c2c(c1)c(/C=C1\Oc3cc(O)ccc3C1=O)cn2CCCC#N [Compound 502] is greater than or equal to 6
OUTPUT: Criterion not met

INPUT: # check: pIC50 of COc1ccc2c(c1)c(/C=C1\Oc3cc(O)cc(O)c3C1=O)c(C1CC1)n2CCn1cccn1 [Example 340] is greater than or equal to 6
OUTPUT: Criterion met

INPUT: # check: pIC50 of CCn1c(C)c(/C=C2\Oc3ccc(NC(=O)Nc4ccc(N(C)C)cc4)cc3C2=O)c2cc(OC)ccc21 [Compound 681] is greater than or equal to 6
OUTPUT: Criterion met

INPUT: # check: pIC50 of Cn1cc(/C=C2\Oc3cc(O)cc(O)c3C2=O)c2c(-c3ccc(C(=O)N4CCCC4)cc3)cccc21 [Example 396] is greater than or equal to 6
OUTPUT: Criterion met

INPUT: # check: pIC50 of CNC(=O)Nc1ccc2c(c1)C(=O)/C(=C/c1c(C(=O)NCCN(C)C)[nH]c3ccc(OC)cc13)O2 [Compound 605] is greater than or equal to 6
OUTPUT: Criterion met

INPUT: # check: pIC50 of Cn1cc(/C=C2\Oc3cc(O)cc(O)c3C2=O)c2c(-c3ccc(N)cc3)cccc21 [Example 370] is greater than or equal to 6
OUTPUT: Criterion not met

###

# Target System: human TOR (Homo sapiens)
# Construct: FLAG
# Test Method Notes: mTOR enzyme assay (DELFIA, His6-S6K substrate)
# Format: biochemical
# Experimental Setup: read-out: mTOR Kinase Avg. IC50
Recorded Endpoint: IC50 (nM)
Respond with the bare value in nM.

COc1ccc2c(c1)c(/C=C1\Oc3cc(O)ccc3C1=O)c(C)n2CCN1CCN(C)CC1 | 1.93
Cn1cc(/C=C2\Oc3cc(O)cc(O)c3C2=O)c2c(-c3ccc(N)nc3)cccc21 | 89

Would you kindly look at the next entry?
INPUT: Using the record for CNC(=O)Nc1ccc2c(c1)C(=O)/C(=C/c1c(Br)[nH]c3ccc(OC)cc13)O2 , report its IC50.
OUTPUT: 8
